- Test system: serotonin (5-HT)
- EXPERIMENT_DESCRIPTION: Anti-serotonin (anti-5-HT) action: serotonin-induced contraction of guinea pig superior mesenteric artery
- Set-up: species or system Hartley male guinea pig
- RUN_PARAMETERS: test drug 10^-6 M, contraction by 10^-5 M serotonin = 100%, 1 µM
For each record, write down the corresponding Anti 5-HT action (% of Control), percent contraction.

Example entries begin here.
[[record]]
compound = "COc1ccccc1N1CCN(CCCCCn2ccc3c2C(=O)N(Cc2ccccc2)CCC3=O)CC1 [Compound No. 36]"
measured_target = "serotonin (5-HT)"
endpoint_result = "61.8 % of Control"

[[record]]
compound = "CN1CCC(=NO)c2ccn(CCCCN3CCN(c4ccc(F)cc4)CC3)c2C1=O [Compound No. 29]"
measured_target = "serotonin (5-HT)"
endpoint_result = "12.0 % of Control"

[[record]]
compound = "O=C1CCN(Cc2ccccc2)C(=O)c2c1ccn2CCCCCN1CCN(c2ccccc2)CC1 [Compound No. 20]"
measured_target = "serotonin (5-HT)"
endpoint_result = "45.7 % of Control"


// batch mode: one Anti 5-HT action (% of Control), percent contraction value per listed entry
1. CN1CCC(=NO)c2ccn(CCCCN3CCN(c4cccc(Cl)c4)CC3)c2C1=O [Compound No. 31]
2. CN1CCC(=NO)c2ccn(CCCCN3CCN(c4ccccc4)CC3)c2C1=O [Compound No. 27]
3. CN1CCC(O)c2ccn(CCCCN3CCN(c4ccccc4)CC3)c2C1=O (stereo not drawn) [Compound No. 24]

Result block:
1: 69.0 % of Control; 2: 25.7 % of Control; 3: 36.0 % of Control

The reported measurements were obtained from patent US5397780A.
